target: 5-HT-2c receptor (Homo sapiens, UniProt P28335)
Sequence (P28335 33-458): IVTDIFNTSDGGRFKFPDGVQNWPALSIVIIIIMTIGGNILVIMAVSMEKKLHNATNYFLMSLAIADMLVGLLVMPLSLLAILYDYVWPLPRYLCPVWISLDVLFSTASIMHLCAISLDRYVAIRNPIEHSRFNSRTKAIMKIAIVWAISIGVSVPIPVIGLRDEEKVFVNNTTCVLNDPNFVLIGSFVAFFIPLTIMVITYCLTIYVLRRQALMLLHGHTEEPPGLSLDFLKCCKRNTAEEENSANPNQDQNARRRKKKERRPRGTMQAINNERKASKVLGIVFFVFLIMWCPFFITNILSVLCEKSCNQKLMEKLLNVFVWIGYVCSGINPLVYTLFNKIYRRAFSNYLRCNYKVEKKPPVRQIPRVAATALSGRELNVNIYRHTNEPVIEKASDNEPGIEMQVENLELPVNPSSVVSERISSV
Measured Quantity: pIC50
Note on units: pIC50 is unitless, being -log10 of a concentration expressed in mol/L.

### Prompt Short answer please: pIC50, 5-HT-2c receptor (Homo sapiens, UniProt P28335), entry COc1ccc2[nH]cc(CCNC(=O)c3cc(=O)cco3)c2c1
### Response 5.55

====

target: 5-HT-2a receptor (Homo sapiens)
Sequence (P28223 whole entry): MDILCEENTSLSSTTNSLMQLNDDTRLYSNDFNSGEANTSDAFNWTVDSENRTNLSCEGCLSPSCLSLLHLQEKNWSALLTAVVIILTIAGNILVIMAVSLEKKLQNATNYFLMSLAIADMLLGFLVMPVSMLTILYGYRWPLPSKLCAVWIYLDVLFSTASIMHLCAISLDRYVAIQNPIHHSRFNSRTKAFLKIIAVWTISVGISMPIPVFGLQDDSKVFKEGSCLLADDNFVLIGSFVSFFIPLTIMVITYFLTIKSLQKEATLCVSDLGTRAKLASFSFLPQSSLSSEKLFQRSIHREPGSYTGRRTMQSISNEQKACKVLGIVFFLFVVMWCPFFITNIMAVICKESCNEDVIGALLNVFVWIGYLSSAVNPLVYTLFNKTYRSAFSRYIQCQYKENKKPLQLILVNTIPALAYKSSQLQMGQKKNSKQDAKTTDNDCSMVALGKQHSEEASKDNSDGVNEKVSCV
pIC50: −log10 of the molar value.
Measured Quantity: pIC50

### Prompt Fill in the blank: the reported pIC50 of COc1ccc2[nH]cc(CCNC(=O)c3cc(=O)cco3)c2c1 [piromelatine] is ____.
### Response < 5.00
